Reference source for all entries: ChEMBL document CHEMBL1201862

Molecular target: Paired box protein Pax-8 (Homo sapiens)
Sequence (Q06710 whole entry): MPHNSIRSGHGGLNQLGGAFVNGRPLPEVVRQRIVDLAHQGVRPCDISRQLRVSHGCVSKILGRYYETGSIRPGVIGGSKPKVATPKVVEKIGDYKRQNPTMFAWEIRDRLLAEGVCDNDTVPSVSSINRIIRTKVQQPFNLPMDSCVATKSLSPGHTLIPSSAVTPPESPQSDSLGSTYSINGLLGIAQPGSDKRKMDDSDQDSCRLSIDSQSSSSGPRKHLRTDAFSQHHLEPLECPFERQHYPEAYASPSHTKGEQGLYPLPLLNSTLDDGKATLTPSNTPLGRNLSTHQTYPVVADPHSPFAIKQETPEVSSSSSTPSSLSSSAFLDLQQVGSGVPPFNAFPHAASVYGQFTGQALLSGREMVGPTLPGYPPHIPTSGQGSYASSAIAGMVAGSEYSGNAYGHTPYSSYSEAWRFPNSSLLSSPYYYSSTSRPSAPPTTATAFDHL
Assay: inhibitors of PAX8-driven TPO luciferase reporter, dose response, RMG-I cells, cherry-pick (AID 687027);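 further: luciferase reporter driven by Pax8 target thyroperoxidase promoter measured by SteadyGlo luminescence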
Type: functional, cell-based
Calls of active or inactive are those of the source.
Record form. Attribute: AC50. Fill in for each entry.

# returns recorded AC50 (system: Paired box protein Pax-8 (Homo sapiens)) for `C[C@]12CC[C@H]3[C@@H](CC[C@]4(O)C[C@@H](O)CC[C@]34C=O)[C@@]1(O)CC[C@@H]2C1=CC(=O)OC1`
2.22 µM (active)

Which measured AC50 belongs to `O=S(=O)(c1ccccc1F)N1CC[C@@H]2[C@H]1c1cc(-c3cccc(F)c3)ccc1N[C@@H]2CO` , tested on Paired box protein Pax-8 (Homo sapiens)?
4.09 µM (active)

Return AC50 measured with Paired box protein Pax-8 (Homo sapiens) given this compound: `COc1ccc(C2=NN=C(Nc3cc(S(=O)(=O)N(C)C)ccc3C)SC2)c(OC)c1`
6.77 µM (active)

Form entry - test system: Paired box protein Pax-8 (Homo sapiens); read-out: AC50; compound: `CN1C(=O)/C(=C\C(=O)c2cccs2)c2ccccc21`
23.1 µM (active)

----------
Molecular target: Fatty acid synthase (Homo sapiens)
Sequence (P49327 whole entry, the tested form may be a part): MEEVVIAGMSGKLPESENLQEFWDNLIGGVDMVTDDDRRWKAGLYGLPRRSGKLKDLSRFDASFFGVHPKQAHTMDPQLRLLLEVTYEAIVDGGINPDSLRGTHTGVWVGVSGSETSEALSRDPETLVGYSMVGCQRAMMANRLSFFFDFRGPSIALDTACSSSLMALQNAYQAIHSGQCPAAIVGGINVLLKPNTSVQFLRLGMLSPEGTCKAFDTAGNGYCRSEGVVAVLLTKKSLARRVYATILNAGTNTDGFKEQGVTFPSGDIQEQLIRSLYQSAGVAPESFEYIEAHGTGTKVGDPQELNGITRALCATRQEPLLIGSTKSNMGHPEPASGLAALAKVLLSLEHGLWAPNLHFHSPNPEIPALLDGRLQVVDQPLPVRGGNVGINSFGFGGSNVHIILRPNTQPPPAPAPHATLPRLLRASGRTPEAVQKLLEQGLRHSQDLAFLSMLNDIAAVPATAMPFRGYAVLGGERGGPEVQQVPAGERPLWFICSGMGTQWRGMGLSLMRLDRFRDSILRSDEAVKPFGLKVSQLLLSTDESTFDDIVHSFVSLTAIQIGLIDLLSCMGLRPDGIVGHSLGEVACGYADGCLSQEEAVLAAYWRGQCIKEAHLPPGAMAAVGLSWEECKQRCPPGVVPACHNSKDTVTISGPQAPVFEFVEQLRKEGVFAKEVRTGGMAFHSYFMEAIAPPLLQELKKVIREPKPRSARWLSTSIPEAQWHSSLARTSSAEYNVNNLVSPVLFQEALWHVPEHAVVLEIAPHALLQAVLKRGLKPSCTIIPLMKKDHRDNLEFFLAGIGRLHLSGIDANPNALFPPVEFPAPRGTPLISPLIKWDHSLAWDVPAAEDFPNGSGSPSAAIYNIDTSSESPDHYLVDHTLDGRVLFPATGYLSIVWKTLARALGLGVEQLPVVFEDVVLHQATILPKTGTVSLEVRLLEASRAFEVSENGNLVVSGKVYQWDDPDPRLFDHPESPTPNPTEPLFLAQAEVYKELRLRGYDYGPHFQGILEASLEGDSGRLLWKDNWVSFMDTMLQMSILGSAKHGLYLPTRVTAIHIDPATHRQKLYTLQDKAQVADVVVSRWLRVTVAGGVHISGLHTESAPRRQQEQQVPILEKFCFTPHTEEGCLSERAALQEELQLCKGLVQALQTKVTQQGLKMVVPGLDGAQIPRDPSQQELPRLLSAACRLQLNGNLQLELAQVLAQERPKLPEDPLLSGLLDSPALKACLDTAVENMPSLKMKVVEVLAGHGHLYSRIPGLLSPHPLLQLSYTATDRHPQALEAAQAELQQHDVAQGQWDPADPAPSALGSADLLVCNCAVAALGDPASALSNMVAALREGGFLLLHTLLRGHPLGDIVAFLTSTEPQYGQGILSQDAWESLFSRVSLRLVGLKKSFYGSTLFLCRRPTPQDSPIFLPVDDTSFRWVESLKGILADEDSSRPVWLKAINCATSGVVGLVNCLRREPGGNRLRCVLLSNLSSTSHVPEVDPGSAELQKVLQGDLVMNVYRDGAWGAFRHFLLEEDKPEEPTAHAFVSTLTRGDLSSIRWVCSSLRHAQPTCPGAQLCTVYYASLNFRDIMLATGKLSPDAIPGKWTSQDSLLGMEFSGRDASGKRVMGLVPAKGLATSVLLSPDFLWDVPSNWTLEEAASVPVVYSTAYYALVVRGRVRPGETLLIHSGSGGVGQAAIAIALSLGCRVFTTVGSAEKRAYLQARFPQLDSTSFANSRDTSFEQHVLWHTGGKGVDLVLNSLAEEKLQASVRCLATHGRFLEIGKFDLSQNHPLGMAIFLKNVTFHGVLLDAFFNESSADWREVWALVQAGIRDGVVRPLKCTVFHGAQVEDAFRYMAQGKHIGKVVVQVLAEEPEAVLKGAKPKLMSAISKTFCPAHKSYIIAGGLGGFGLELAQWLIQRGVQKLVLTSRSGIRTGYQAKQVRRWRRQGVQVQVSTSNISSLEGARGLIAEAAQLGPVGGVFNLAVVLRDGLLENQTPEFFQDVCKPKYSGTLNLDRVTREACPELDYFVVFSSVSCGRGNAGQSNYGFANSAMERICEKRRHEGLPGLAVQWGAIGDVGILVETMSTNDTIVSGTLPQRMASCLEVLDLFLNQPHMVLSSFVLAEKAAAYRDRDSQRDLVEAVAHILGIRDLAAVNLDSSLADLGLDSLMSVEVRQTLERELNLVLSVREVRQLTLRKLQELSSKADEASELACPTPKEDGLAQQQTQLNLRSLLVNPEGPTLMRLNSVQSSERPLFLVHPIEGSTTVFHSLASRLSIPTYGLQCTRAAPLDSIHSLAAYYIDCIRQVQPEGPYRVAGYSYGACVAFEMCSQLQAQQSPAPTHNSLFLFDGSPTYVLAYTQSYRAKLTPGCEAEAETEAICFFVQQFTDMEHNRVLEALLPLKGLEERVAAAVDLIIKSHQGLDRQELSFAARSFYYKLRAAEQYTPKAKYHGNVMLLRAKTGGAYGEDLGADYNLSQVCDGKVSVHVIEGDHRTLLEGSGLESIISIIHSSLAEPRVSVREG
Assay: FAS thioesterase domain inhibitors, dose response, biochemical, endpoint fluorescence intensity, uHTS hits (AID 624327);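 further: fluorescence from hydrolysis of an O-methyl fluorescein acyl ester substrate by the enzyme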
Format: functional
Active and inactive are the calls of the source.
Answer with one of the outcomes given here: active, inactive

Just curious, what result did `Cn1c(SCc2cccc(Cl)c2)nc(C(F)(F)F)cc1=O` get here?
active

Please state the recorded outcome for this compound: `COc1ccc(CNC(=O)C[C@H]2C[C@H](C(=O)N3CCOCC3)[C@@]3(CCC4CCCC4)c4[nH]c5ccc(Cl)cc5c4CCN3C2=O)cc1OC`
active

Would you mind telling me which call this test gave `Cc1cc(C)c([N+](=O)[O-])cc1NCC(=O)N1CCN(c2ccccc2)CC1` ?
active

Answer briefly: the call reported for `CC(=O)OCCCNc1cc(Sc2nc3ccccc3s2)c2nonc2c1[N+](=O)[O-]` in this assay.
active

Which outcome was entered for the compound `O=C(NC12CC3CC(CC(C3)C1)C2)c1cc([N+](=O)[O-])ccc1N1CCOCC1` in this test?
inactive

----------
Target: G-protein coupled receptor 55 (Homo sapiens, UniProt Q9Y2T6)
Sequence (Q9Y2T6 whole entry): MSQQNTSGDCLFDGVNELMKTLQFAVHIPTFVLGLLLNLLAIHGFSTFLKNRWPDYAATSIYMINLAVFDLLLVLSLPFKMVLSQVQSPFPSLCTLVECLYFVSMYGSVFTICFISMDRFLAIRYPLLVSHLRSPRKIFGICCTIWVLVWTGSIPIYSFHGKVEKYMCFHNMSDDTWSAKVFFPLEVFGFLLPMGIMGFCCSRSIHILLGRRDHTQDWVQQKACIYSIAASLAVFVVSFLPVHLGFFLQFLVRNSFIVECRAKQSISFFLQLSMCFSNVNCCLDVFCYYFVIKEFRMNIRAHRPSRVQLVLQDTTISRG
Assay: GPR55 antagonists blocking LPI-driven arrestin recruitment, primary screen, imaging, U2OS, beta-arrestin-GFP, LPI agonist (AID 2013);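 further: antagonist potency measured as reduced agonist-driven arrestin aggregation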
Format: functional
Activity calls are given as the source filed them.
Give IC50 for every item shown.

Lab note: need IC50 with G-protein coupled receptor 55 (Homo sapiens, UniProt Q9Y2T6) for entry `N#Cc1c(/N=C/N2CCCC2)oc(-c2ccccc2)c1-c1ccccc1` , please look it up.
558 nM (active)

API: value(readout=IC50, system=G-protein coupled receptor 55 (Homo sapiens, UniProt Q9Y2T6)) for record CC(C)(C)n1nnnc1C(c1cccs1)N(Cc1cccnc1)Cc1ccccc1Cl (stereo not given)
3570 nM (active)

Request - read-out IC50 | tested on G-protein coupled receptor 55 (Homo sapiens, UniProt Q9Y2T6) | compound `CSc1nnc(-c2sccc2OCc2ccccc2)n1C`
2710 nM (active)

Quick check: IC50 on G-protein coupled receptor 55 (Homo sapiens, UniProt Q9Y2T6), item O=C(c1ccccc1)N1N=C(c2cccs2)CC1c1ccccc1O (stereo not given) ?
2720 nM (active)

Form entry - test system: G-protein coupled receptor 55 (Homo sapiens, UniProt Q9Y2T6); read-out: IC50; compound: `C=C1C(=O)O[C@@H]2C[C@@H](C)[C@@H]3C=CC(=O)[C@@]3(C)[C@@H](OC(C)=O)[C@H]12`
4490 nM (active)

----------
Test: inhibitors of SNCA 5'UTR-driven reporter translation, confirmation, H4 neuroglioma cells, luminescence (AID 1988)
Format: functional, cell-based
The source made the active and inactive calls.
RECORDED METRIC: EC50

I am curious: what EC50 value has been reported for `Nc1cc(O)nc(SCCSc2ccccc2F)n1` ?
1.29 µM (active)

I have this compound here, `O=C(CSc1nnc(COc2ccc(Cl)cc2)o1)N1c2ccccc2CCc2ccccc21` , and I need its recorded EC50.
15.2 µM (active)

Recorded EC50 of `O=C(/C=C\Nc1ccc(S(=O)(=O)Nc2ncccn2)cc1)c1cccc2ccccc12` , please.
> 120 µM (not active)

EC50 lookup needed for `O=[N+]([O-])c1ccc(Cl)cc1Sc1nc2ccccc2o1` , thanks.
> 120 µM (not active)

Param item = `CN(Cc1cnc2nc(N)nc(N)c2n1)c1ccc(C(=O)N[C@@H](CCC(=O)O)C(=O)O)cc1` ; retrieve measured EC50.
< 0.1 µM (active)

----------
Molecular target: DNA repair protein RAD52 homolog (Homo sapiens)
Sequence (P43351 whole entry): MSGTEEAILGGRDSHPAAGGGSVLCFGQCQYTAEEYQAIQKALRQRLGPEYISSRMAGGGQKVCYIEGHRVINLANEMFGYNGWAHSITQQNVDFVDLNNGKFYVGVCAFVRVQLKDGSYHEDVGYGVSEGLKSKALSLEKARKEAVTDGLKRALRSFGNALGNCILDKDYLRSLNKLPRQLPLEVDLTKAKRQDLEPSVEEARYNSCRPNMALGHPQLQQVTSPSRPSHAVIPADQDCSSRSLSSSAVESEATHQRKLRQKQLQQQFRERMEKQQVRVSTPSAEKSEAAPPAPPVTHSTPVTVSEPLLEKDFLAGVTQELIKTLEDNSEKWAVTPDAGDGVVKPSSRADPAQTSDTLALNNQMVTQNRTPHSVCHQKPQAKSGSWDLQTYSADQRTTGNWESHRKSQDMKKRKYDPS
Assay type: functional, biochemical
Activity calls are given as the source filed them.
Kindly state AC50 for each of the entries shown.

For the compound shown here, `CC1=CC(C)(C)N=C(Nc2nc(C)c3cc(C)cc(C)c3n2)N1` , give the reported AC50.
5.16 µM (active)

Entry under review: `CCCN(CCC)CCCN=C(S)Nc1ccc2nc(N3CCN(CC)CC3)cc(C)c2c1` . Reported AC50?
5.26 µM (active)

Recorded AC50 for CN(C)CCn1cnc2c(c1=N)C(c1ccccc1)c1ccc3ccccc3c1O2 (stereo not given) , please?
23.6 µM (active)

Need AC50, item `N=c1c(C(=O)NCCN2CCOCC2)cc2c(=O)n3ccccc3nc2n1CCc1ccccc1`
10.5 µM (active)

Please look up its AC50: `CCOC(=O)c1c(NC(=O)c2ccc(S(=O)(=O)N3CCOCC3)cc2)sc2c1CCN(C)C2`
11.6 µM (active)

----------
Field: EC50. Provide a value for each of the molecules that follow.
Molecular target: Endoribonuclease toxin MazF (Escherichia coli K-12)
Sequence (P0AE70 whole entry): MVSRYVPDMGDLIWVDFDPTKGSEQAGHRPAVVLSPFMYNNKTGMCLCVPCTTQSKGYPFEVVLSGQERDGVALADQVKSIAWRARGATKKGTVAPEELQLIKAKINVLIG
Experiment: MazF toxin RNase activators, dose response, biochemical, fluorescence, single-stranded RNA substrate, uHTS hits (AID 588481)
Format: functional
Calls of active or inactive are those of the source.

If you can, please state the reported EC50 value of `CC(=O)n1c(/C=N/c2ccc(Cl)cc2)c(O)c2ccccc21` .
> 99 µM (inactive)

Can you share its EC50? I mean this molecule: `O=C(CSCC(=O)Nc1ccccc1)N/N=C/c1c(O)ccc2ccccc12`
> 99 µM (inactive)

Returns the measured EC50 for the input molecule. Input: CC(C)=CCc1c(O)ccc2c1OC(c1ccc(O)c(O)c1)CC2=O (configuration not stated)
> 99 µM (inactive)

Which EC50 reading was recorded for the molecule `CCN1C(=O)/C(=C2/C=Cc3ccccc3N2C)OC1=S` ?
> 99 µM (inactive)

Which EC50 is listed for `Cn1nc(-c2ccccc2)c2nc3ccccc3nc21` ?
> 99 µM (inactive)

Would you kindly share the measured EC50 for CC1C/C(=C/c2cccn2C)C(=O)/C(=C/c2cccn2C)C1 (configuration not stated) ?
> 99 µM (inactive)

Which EC50 reading was recorded for the molecule `Cc1ccc2cc3c(N)c(C(=O)Nc4c(C)[nH]c(=O)[nH]c4=O)sc3nc2c1` ?
> 99 µM (inactive)

----------
Assay: HEp-2 cell cytotoxicity, dose response, cytotoxicity control for RSV inhibitor project, HTS (AID 2410)
Format: functional
Details: human respiratory syncytial virus
Calls of active or inactive are those of the source.
RECORDED METRIC: CC50

CC50 for `Oc1cccc(Nc2nc(-c3ccccc3)nc3ccccc23)c1` ?
13.3 µM (active)

Please give the measured CC50 for this molecule: `COc1ccc(C(=O)CCc2ccccc2O)c(OC)c1`
41.8 µM (active)

I have this molecule here, `O=C(Nc1ccc2c(c1)CCCN2C(=O)c1ccccc1)c1ccccc1Br` , and I need its recorded CC50.
10.5 µM (active)

# get_value(readout='CC50', item= `COC(=O)c1sc2nc(N3CCCCC3)c3c(c2c1N)CCCC3` )
> 50 µM (active)

Data request, read-out CC50, for `CCn1c(=O)[nH]c2ccccc2/c1=N/C(=O)c1ccc(F)cc1`
28 µM (active)

For the molecule shown here, `CCOc1ccc(NC2=NC(=O)CS2)cc1` , give the reported CC50.
24.5 µM (active)

Bench note: what CC50 did `Cc1cccc2nc(-c3ccccc3)nc(N[C@@H](CO)c3ccccc3)c12` show?
19 µM (active)

----------
Assay: control 3'UTR Renilla luciferase suppression, dose response, counter-screen for Shn3 inhibitor project, cell-based, Clone20-Shn3RL, cherry-picked (AID 624133)
Type: functional
The source made the active and inactive calls.
RECORDED METRIC: AC50

What measured AC50 goes with `O=C(c1nnsc1S(=O)(=O)c1ccc(Cl)cc1)N1CCOCC1` ?
12.2 µM (active)

Given `O=C(OCCOc1ccc(Cl)cc1)c1cc(S(=O)(=O)N2CCCCC2)ccc1N1CCOCC1` , state its recorded AC50.
6.64 µM (active)

Recorded AC50 for `CSc1nnc(NC(=O)c2nc(S(=O)(=O)Cc3ccc(C)cc3)ncc2Cl)s1` , please?
11.1 µM (active)

Can you look up the measured AC50 of CC(=O)NC(c1cccs1)c1cc(F)c2cccnc2c1O (stereo not given) for me?
5.16 µM (active)

GET /values?readout=AC50&item= `CCN1CCN(Cc2ccc(NC(=O)c3ccc(C)c(NC(=O)c4cnc5cc(C(F)(F)F)ccc5c4O)c3)cc2C(F)(F)F)CC1`
6.23 µM (active)
